Test system: CCRIS mutagenicity, Ames/micronucleus/aberration tests
experimental-protocol: CCRIS mutagenicity studies
applied-conditions: Test System: AMES SALMONELLA TYPHIMURIUM; Strain/Indicator: YG1026; Metabolic Activation: NONE; Method: PREINCUBATION
The source made the active and inactive calls. How the calls were made is not given here.
Returns: one label drawn from yes for active, no for inactive

Past entries and their recorded results:
* CCOc1ccc([N+](=O)[O-])cc1 | yes
* O=[N+]([O-])c1ccc(Nc2ncnc3c2ncn3-c2ccc([N+](=O)[O-])cc2)cc1 | no
* Nc1nc(-c2ccc([N+](=O)[O-])cc2)nc2c1ncn2[C@H]1C[C@H](O)[C@@H](CO)O1 | yes
* CCOc1ccc(NO)cc1 | yes

Next, consider the following molecule.
Problem: Given `COc1cc(Oc2ccc(Cl)cc2Cl)ccc1[N+](=O)[O-]` , state the outcome it received in this test.
Solution: yes

###

System: CCRIS mutagenicity, Ames/micronucleus/aberration tests
experimental-protocol: CCRIS mutagenicity studies
applied-conditions: Test System: AMES SALMONELLA TYPHIMURIUM; Strain/Indicator: TA98; Metabolic Activation: S-9; Method: PREINCUBATION
Description: The CCRIS database contains chemical records with carcinogenicity, mutagenicity, tumor promotion, and tumor inhibition test results. It was developed by the National Cancer Institute (NCI). Data are derived from studies cited in primary journals, current awareness tools, NCI reports, and other sources. Test results have been reviewed by experts in carcinogenesis and mutagenesis. CCRIS provides historical information from the years 1985 - 2011. It is no longer updated. […]
Activity calls are given as the source filed them. The rule behind the calls is not given here.
Returns: one label drawn from active, inactive

Past entries and their recorded results:
• Cc1c(N)nc(C(CC(N)=O)NCC(N)C(N)=O)nc1C(=O)NC(C(=O)NC(C)C(O)C(C)C(=O)NC(C(=O)NCCc1nc(-c2nc(C(=O)NCCC[S+](C)C)cs2)cs1)C(C)O)C(O[C@@H]1O[C@@H](CO)[C@@H](O)[C@H](O)[C@@H]1O[C@H]1O[C@H](CO)[C@@H](O)[C@H](OC(N)=O)[C@@H]1O)c1cnc[nH]1 (some centres undefined) = inactive
• C[C@]12C=CC(=O)C=C1CC[C@@H]1[C@@H]2[C@@H](O)C[C@@]2(C)[C@H]1CC[C@]2(O)C(=O)CO = inactive
• Nc1ccc(O)c(C(=O)O)c1 = inactive

Next, consider the following compound.
Problem: Given `O=C(O)C[C@H](O)C[C@H](O)/C=C/c1c(C2CC2)nc2ccccc2c1-c1ccc(F)cc1` , state the outcome it received in this test.
Solution: inactive

###

Tested on: CCRIS mutagenicity, Ames/micronucleus/aberration tests
experimental-protocol: CCRIS mutagenicity studies
applied-conditions: Test System: Ames Salmonella typhimurium; Strain/Indicator: TA98; Metabolic Activation: None; Method: Standard plate
Active and inactive are the calls of the source. How the calls were made is not given here.
reported-endpoint: mutagenic call

- O=c1cc(-c2ccc(O)cc2)oc2cc(O)c([C@@H]3O[C@H](CO)[C@@H](O)[C@H](O)[C@H]3O)c(O)c12: inactive; negative
- O=[N+]([O-])C(Br)Br: inactive; negative
- O=c1c(O[C@@H]2O[C@H](CO)[C@H](O)[C@H](O)[C@H]2O)c(-c2ccc(O)c(O)c2)oc2cc(O)cc(O)c12: inactive; negative

###

Tested on: CCRIS mutagenicity, Ames/micronucleus/aberration tests
experimental-protocol: CCRIS mutagenicity studies
applied-conditions: Test System: AMES SALMONELLA TYPHIMURIUM; Strain/Indicator: TA97; Metabolic Activation: RAT, LIVER, S-9, PCB; Method: STANDARD PLATE
Activity calls are given as the source filed them. How the calls were made is not given here.
Returns: one label drawn from label 1 for active, label 0 for inactive

Past entries and their recorded results:
- O=C1C=CC(=O)C=C1: label 0
- Cc1ccc2cc3ccccc3cc2c1: label 1
- O=C1c2ccccc2C(=O)c2ccccc21: label 0

Next, consider the following compound.
Problem: Given `O=C1C=CC(=O)c2ccccc21` , state the outcome it received in this test.
Solution: label 0

###

Test system: CCRIS mutagenicity, Ames/micronucleus/aberration tests
experimental-protocol: CCRIS mutagenicity studies
applied-conditions: Test System: E. COLI; Strain/Indicator: WP2 (HCR); Metabolic Activation: NONE; Method: STANDARD PLATE
Activity calls are given as the source filed them. No rule for the calls is given here.
reported-endpoint: mutagenic call

* O[C@@H]([C@H](O)[C@H](O)CBr)[C@H](O)CBr | inactive; negative
* O=c1[nH]c(=O)n([C@H]2C[C@H](O)[C@@H](CO)O2)cc1Br | inactive; negative
* CC/C(=C(/CC)c1ccc(OP(=O)(O)O)cc1)c1ccc(OP(=O)(O)O)cc1 | inactive; negative

###

Tested on: CCRIS mutagenicity, Ames/micronucleus/aberration tests
experimental-protocol: CCRIS mutagenicity studies
applied-conditions: Test System: AMES SALMONELLA TYPHIMURIUM; Strain/Indicator: TA98; Metabolic Activation: RAT, LIVER, S-9, AROCLOR 1254; Method: STANDARD PLATE
The source made the active and inactive calls. No rule for the calls is given here.
Returns: one label drawn from TRUE for active, FALSE for inactive

Past entries and their recorded results:
* CN=C1C=CC(=C(c2ccc(N(C)C)cc2)c2ccc(N(C)C)cc2)C=C1 | FALSE
* S=C1SSC2=NCCN12 | FALSE
* CC(=O)ON(C(C)=O)c1ccc(Sc2ccccc2)cc1 | TRUE

Problem: Given `O=Cc1ccc2ccc3cccc4ccc1c2c34` , state the outcome it received in this test.
Solution: TRUE

Problem: Given `Cc1ccc(N=Cc2cccc3cccnc23)c(C(=O)O)c1` , state the outcome it received in this test.
Solution: FALSE

Problem: Given `CCC(=O)N(c1ccc(Cl)c(Cl)c1)[C@@H]1CCC[C@H]1N(C)C` , state the outcome it received in this test.
Solution: FALSE

Problem: Given `CC1(OO)c2ccccc2-c2ccccc21` , state the outcome it received in this test.
Solution: TRUE

Problem: Given `CCC1(c2ccccc2)C(=O)NC(=O)NC1=O` , state the outcome it received in this test.
Solution: FALSE

Problem: Given `O=C(c1ccc([N+](=O)[O-])cc1)[C@@H]1O[C@@H]1c1ccccc1` , state the outcome it received in this test.
Solution: FALSE

Problem: Given `CCn1cc(C(=O)O)c(=O)c2cc(F)c(-c3ccncc3)c(F)c21` , state the outcome it received in this test.
Solution: FALSE

Problem: Given `CC(C)c1c(C(=O)Nc2ccccc2)c(-c2ccccc2)c(-c2ccc(F)cc2)n1CC[C@@H](O)C[C@@H](O)CC(=O)O` , state the outcome it received in this test.
Solution: FALSE

Problem: Given `S=C1NCCN1` , state the outcome it received in this test.
Solution: FALSE

Problem: Given `N[C@@H]1C[C@H]1c1ccccc1` , state the outcome it received in this test.
Solution: FALSE

Problem: Given `Clc1ccc2c(c1)C(c1ccccc1)=NCc1nncn1-2` , state the outcome it received in this test.
Solution: FALSE

Problem: Given `CC(=O)c1cccn1[N+](=O)[O-]` , state the outcome it received in this test.
Solution: TRUE

###

System: CCRIS mutagenicity, Ames/micronucleus/aberration tests
experimental-protocol: CCRIS mutagenicity studies
applied-conditions: Test System: AMES SALMONELLA TYPHIMURIUM; Strain/Indicator: TA104; Metabolic Activation: NONE; Method: STANDARD PLATE
Active and inactive are the calls of the source. No rule for the calls is given here.
Returns: one label drawn from active, inactive

Past entries and their recorded results:
- C[C@]12CC[C@H](OC(=O)Cc3ccc(N(CCCl)CCCl)cc3)C[C@@H]1CC[C@@H]1[C@@H]2CC[C@]2(C)NC(=O)CC[C@@H]12: inactive
- CC[C@@]1(O)C[C@H](O[C@H]2C[C@H](N(C)C)[C@H](O)[C@H](C)O2)c2c(cc3c(c2O)C(=O)c2c(O)cccc2C3=O)[C@H]1C(=O)OC: active
- Cc1c(N)c(=O)n(-c2ccccc2)n1C: inactive
- Cc1occc(=O)c1[O-].Cc1occc(=O)c1[O-].Cc1occc(=O)c1[O-].[Al+3]: inactive

Problem: Given `O=Nc1c2ccccc2c2ccc3cccc4ccc1c2c43` , state the outcome it received in this test.
Solution: active

Problem: Given `CC1(C)C=C(C(=O)O)C(C)(C)N1[O]` , state the outcome it received in this test.
Solution: inactive

Problem: Given `CC(C)(Cl)Cl` , state the outcome it received in this test.
Solution: inactive

Problem: Given ClC(Cl)(Cl)C1CO1 (stereo unspecified) , state the outcome it received in this test.
Solution: active

Problem: Given `Cc1cc(O)ccc1Cl` , state the outcome it received in this test.
Solution: inactive

Problem: Given `S=C1NCCN1` , state the outcome it received in this test.
Solution: inactive

Problem: Given `CN=C1C=CC(=C(c2ccc(N(C)C)cc2)c2ccc(N(C)C)cc2)C=C1` , state the outcome it received in this test.
Solution: inactive
